Entries and their melting point values follow.

Please look up its melting point: Cc1cc(C)c(S(=O)(=O)N/N=C/c2cccnc2)c(C)c1
173 to 176 °C

====

biological target: carbonic anhydrase (Bos taurus)
Sequence (P00921 whole entry): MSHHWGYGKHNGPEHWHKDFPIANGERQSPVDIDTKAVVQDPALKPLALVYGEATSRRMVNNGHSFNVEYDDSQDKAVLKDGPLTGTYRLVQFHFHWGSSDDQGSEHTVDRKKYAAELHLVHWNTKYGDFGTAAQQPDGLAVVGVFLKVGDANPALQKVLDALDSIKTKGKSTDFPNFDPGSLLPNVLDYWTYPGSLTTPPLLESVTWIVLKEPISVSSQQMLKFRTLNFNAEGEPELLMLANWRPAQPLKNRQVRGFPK
ATTRIBUTE MEASURED: Ki (µM)
Dear colleague, please return just the value in µM, with no unit written.

Please look up its Ki: Cc1ccc(S(=O)(=O)N/N=C/c2cccnc2)cc1 [Compound 3c]
8.6

====

target: carbonic anhydrase (Bos taurus)
ATTRIBUTE MEASURED: pIC50
The read-out pIC50 is expressed as -log10 of concentration in moles per litre.

| COMPOUND | pIC50 |
| --- | --- |
| Cc1ccc(S(=O)(=O)N/N=C/c2cccnc2)cc1 [Compound 3c] | 6.08 |

Kindly consider the entry below.
Please look up its pIC50: Cc1ccc(S(=O)(=O)N/N=C/c2ccccn2)cc1 [Compound 3g]
4.23

====

Entries and their melting point values follow.

Solved entries:
| LINE NOTATION | RESULT |
| --- | --- |
| Cc1ccc(S(=O)(=O)N/N=C/c2cccnc2)cc1 | 168 to 171 °C |
| Cc1ccc(S(=O)(=O)N/N=C/c2ccccn2)cc1 | 159 to 161 °C |
| COc1ccc(S(=O)(=O)N/N=C/c2cc[nH]c2)cc1 | 176 to 179 °C |
| Cc1ccc(S(=O)(=O)N/N=C/c2ccncc2)cc1 | 148 to 152 °C |

Please look up its melting point: O=S(=O)(N/N=C/c1cccnc1)c1ccccc1
176 to 178 °C

Please look up its melting point: CC(=O)Nc1ccc(S(=O)(=O)N/N=C/c2cccnc2)cc1
181 to 184 °C

Please look up its melting point: Cc1cc(C)c(S(=O)(=O)N/N=C/c2ccncc2)c(C)c1
160 to 164 °C

Please look up its melting point: O=S(=O)(N/N=C/c1ccc[nH]1)c1ccccc1
156 to 158 °C

Please look up its melting point: Cc1ccc(S(=O)(=O)N/N=C/c2ccc[nH]2)cc1
146 to 148 °C

Origin of the recorded values: paper PMC7054763
